Attribution: the supplement of paper PMC10065799

TARGET ENTITY: SHP2-C SH2;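 further: peptide library displayed on the E. coli surface as eCPX fusions, selected cells deep-sequenced, score is each peptide's frequency after selection divided by its frequency in the input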
ASSAY PROCEDURE: SH2 binding enrichment of the phosphorylated peptide, bacterial display (enrichment ratio); higher = better substrate or ligand; peptides without Tyr show the background
Rule: SH2 binding enrichment of 0.6 or more gives t; anything lower gives f.

Query block: Does SH2 binding enrichment meet or surpass 0.6 for FAFQLYDLDRD [CHP2_Y123_YF] ?
Result block: t

Query block: Determine whether measured SH2 binding enrichment meets or exceeds 0.6 for SAEEDYKADAK [KCNT1_Y876_M877K]
Result block: t

Query block: Reported SH2 binding enrichment at or above 0.6? HNELFYEEAEH [VANGL1_Y345_YF]
Result block: t

Query block: Reported SH2 binding enrichment reaches at least 0.6 for KSDVMYTDWKK [ORM1_Y175_V174M] ?
Result block: t

Query block: Can LSQDVYEEDSY [RET_Y900_R897Q] be said to have SH2 binding enrichment at or above 0.6?
Result block: f

Query block: # check: SH2 binding enrichment of VFAADYFKLLG [ROR2_Y645_YF] is greater than or equal to 0.6
Result block: t

Query block: Does the sequence HNELFYEAAEH [VANGL1_Y345_E347A_YF] have recorded SH2 binding enrichment that is 0.6 or more?
Result block: f
